# Test system: KRas G12D mutant
# Assay: Ras GTP Binding Domain Inhibition Assay (Ras Superfamily Assay)
# Experimental Context: 20 μM compound, with SOS
Assay Readout: KRas G12D mutant + SOS: % inh.

Field: example entries. Status: answers known.
[
  {
    "Molecule": "COC(=O)c1c(-c2ccn(C)n2)cn2nc(-c3nccn3C)nc(N[C@H]3CC[C@H](OC)C3)c12 (racemic)",
    "Result": "A (A = 1-25% inhibition)"
  },
  {
    "Molecule": "COC[C@@H]1CC[C@@H]1CNc1nc(-c2ccccn2)nn2cc(-c3ccn(C(C)C)n3)c(-c3ccccc3)c12 (racemic)",
    "Result": "A (A = 1-25% inhibition)"
  },
  {
    "Molecule": "CO[C@H]1CC[C@@H](Nc2nc(-c3ccccn3)nn3cc(-c4ccn(C(C)C)n4)c(C)c23)C1 (racemic)",
    "Result": "0 (0 = 0% inhibition)"
  },
  {
    "Molecule": "COc1cccc(Nc2nc(-c3nccn3C)nn3ccc(-c4ccccc4)c23)n1",
    "Result": "0 (0 = 0% inhibition)"
  },
  {
    "Molecule": "COCC1CCN(c2nc(-c3ccccn3)nn3cc(-c4ccn(C(C)C)n4)c(C)c23)C1 (racemic)",
    "Result": "0 (0 = 0% inhibition)"
  },
  {
    "Molecule": "Cc1c(-c2ccn(C3CC3)n2)cn2nc(-c3nccn3C)nc(O)c12",
    "Result": "A (A = 1-25% inhibition)"
  },
  {
    "Molecule": "COc1cc(-c2cn3nc(-c4nccn4C)nc(N[C@@H]4CC[C@@H](OC)C4)c3c2C)ccn1 (racemic)",
    "Result": "0 (0 = 0% inhibition)"
  },
  {
    "Molecule": "COc1cc(-c2cn3nc(-c4nccn4C)nc(N[C@H]4C[C@@H](OC)C4)c3c2C)ccn1",
    "Result": "0 (0 = 0% inhibition)"
  },
  {
    "Molecule": "COCCO[C@H]1C[C@H](Nc2nc(-c3nccn3C)nn3cc(-c4ccn(C(C)C)n4)c(C)c23)C1",
    "Result": "A (A = 1-25% inhibition)"
  },
  {
    "Molecule": "COCCNc1nc(-c2nccn2C)nn2cc(-c3ccn(C(C)C)n3)c(C(C)C)c12",
    "Result": "0 (0 = 0% inhibition)"
  }
]

query: Quick check: KRas G12D mutant + SOS: % inh. of CO[C@H]1CC[C@@H](Nc2nc(-c3nccn3C)nn3cc(-c4ccn(C(C)C)n4)c(C)c23)C1 (racemic) ?
result: 0 (0 = 0% inhibition)

query: Quick check: KRas G12D mutant + SOS: % inh. of CO[C@H]1C[C@H](Nc2nc(-c3nccn3C)nn3cc(-c4ccncc4)c(C)c23)C1 ?
result: 0 (0 = 0% inhibition)

* * *

# Assay: Kinetic Solubility Assay in pH 7.4 Buffer + 2% DMSO
# Assay type: physicochemical
# Experimental Context: phosphate-buffered saline pH 7.4 with 2% DMSO, aqueous buffer, kinetic from dmso stock, 25° C., two hours
Assay Readout: solubility at 2 h

Field: example entries. Status: answers known.
[
  {
    "Chem Smiles": "Cc1c(-c2ccn(C(C)C)n2)cn2nc(-c3nccn3C)nc(Nc3ncccn3)c12",
    "Result": "< 10 µM"
  },
  {
    "Chem Smiles": "COc1ccnc(Nc2nc(-c3nccn3C)nn3cc(-c4cccnc4)c(C)c23)c1",
    "Result": "< 10 µM"
  },
  {
    "Chem Smiles": "Cc1c(-c2ccn(C)n2)cn2nc(-c3nccn3C)nc(Nc3ccccn3)c12",
    "Result": "> 30 µM"
  },
  {
    "Chem Smiles": "Cc1cc(Nc2nc(-c3nccn3C)nn3cc(-c4ccn(C)n4)c(C)c23)n[nH]1",
    "Result": "> 30 µM"
  }
]

Okay, next one:
query: Quick check: solubility at 2 h of COc1cc(Nc2nc(-c3nccn3C)nn3cc(-c4ccn(C)n4)c(C)c23)ncn1 ?
result: < 10 µM

Ref: patent US12459951B2
